# assay: Intrinsic clearance (CLint) assay, mouse liver microsomes
# Format: in vitro ADME
# condition: mouse liver microsomes
Non-standard residues stand in square brackets, D forms with d. Residues, ends and D or L forms follow the SMILES beside them. dOrn = NCCC[C@@H](N)C(=O)O
measurement name: CLint Mouse

{"columns": ["molecule", "CLint Mouse"],
 "data": [
  ["CC[C@H](C)[C@@H]1NC(=O)[C@H]([C@@H](C)CC)NC(=O)[C@@H](CC(C)C)NC(=O)[C@H](CC(C)C)NC(=O)[C@H](Cc2c[nH]c3ccccc23)NC(=O)[C@@H](CCCN)NC1=O [Compound 12c] (cyclo(II[dOrn]WL[dL]))", "<0.48 mL/min/g tissue"]
]}

Recorded CLint Mouse for CC[C@H](C)[C@@H]1NC(=O)[C@H](Cc2c[nH]c3ccccc23)NC(=O)[C@@H](CCCN)NC(=O)[C@H](CC(N)=O)NC(=O)[C@H](C(C)C)NC(=O)[C@@H](CC(C)C)NC1=O [Compound 19c] (cyclo(I[dL]VN[dOrn]W)) , please?
<0.48 mL/min/g tissue
